These measurements were taken from paper PMC8364686.

Assay: Plasma pharmacokinetics of BI 187004 after single oral doses (LC–MS/MS)
Conditions: male, human, plasma, po, 20 mg, BI 187004 plasma concentrations, 20 mg single oral, planned time 5 h, Max
measured.parameter: concentration at 5 h (nM)
Answers are plain numbers, in nM.

Q: Form field: reported concentration at 5 h of N#Cc1ccc2c(c1)[C@H]1CCCN(C(=O)c3ccc4[nH]cnc4c3)[C@H]1C2 [BI 187004]
A: 883

----------
Test: Plasma pharmacokinetics of BI 187004 after single oral doses (LC–MS/MS)
Conditions: male, human, plasma, po, 20 mg, BI 187004 plasma concentrations, 20 mg single oral, planned time 4 h, gMean
measured.parameter: concentration at 4 h (nM)
Numbers only, in nM.

Q: Please look up its concentration at 4 h: N#Cc1ccc2c(c1)[C@H]1CCCN(C(=O)c3ccc4[nH]cnc4c3)[C@H]1C2 [BI 187004]
A: 707

----------
Test: Plasma pharmacokinetics of BI 187004 after single oral doses (LC–MS/MS)
Conditions: male, human, plasma, po, 240 mg, BI 187004 plasma concentrations, Max, 240 mg single oral, planned time 36 h
measured.parameter: concentration at 36 h (nM)
One number for each entry, in nM.

Q: Consider the compound N#Cc1ccc2c(c1)[C@H]1CCCN(C(=O)c3ccc4[nH]cnc4c3)[C@H]1C2 and give its measured concentration at 36 h.
A: 1340

----------
Assay: Plasma pharmacokinetics of BI 187004 after single oral doses (LC–MS/MS)
Conditions: male, human, plasma, po, 80 mg, BI 187004 plasma concentrations, 80 mg single oral, planned time 0.5 h, Min
measured.parameter: concentration at 0.5 h (nM)
Answers are plain numbers, in nM.

Q: Record request: concentration at 0.5 h value, item N#Cc1ccc2c(c1)[C@H]1CCCN(C(=O)c3ccc4[nH]cnc4c3)[C@H]1C2
A: 304

----------
Experiment: Plasma pharmacokinetics of BI 187004 after single oral doses (LC–MS/MS)
Details: male, human, plasma, po, 160 mg, BI 187004 plasma concentrations, 160 mg single oral, planned time 5 h, Max
measured.parameter: concentration at 5 h (µM)
Answers are plain numbers, in µM.

Q: Item under review: N#Cc1ccc2c(c1)[C@H]1CCCN(C(=O)c3ccc4[nH]cnc4c3)[C@H]1C2 . Reported concentration at 5 h?
A: 5.22

----------
Experiment: Plasma pharmacokinetics of BI 187004 after single oral doses (LC–MS/MS)
Settings: male, human, plasma, po, 2.5 mg, Plasma concentration Mean, 2.5 mg single oral; 2 h
measured.parameter: concentration at 2 h (nM)
One number for each entry, in nM.

Q: Report concentration at 2 h for N#Cc1ccc2c(c1)[C@H]1CCCN(C(=O)c3ccc4[nH]cnc4c3)[C@H]1C2 please.
A: 8.77

----------
Test: Plasma pharmacokinetics of BI 187004 after single oral doses (LC–MS/MS)
Conditions: male, human, plasma, po, 40 mg, BI 187004 plasma concentrations, 40 mg single oral, planned time 5 h, Median
measured.parameter: concentration at 5 h (nM)
Numbers only, in nM.

Q: I am curious: what concentration at 5 h value has been reported for N#Cc1ccc2c(c1)[C@H]1CCCN(C(=O)c3ccc4[nH]cnc4c3)[C@H]1C2 ?
A: 1350

----------
Test: Plasma pharmacokinetics of BI 187004 after single oral doses (LC–MS/MS)
Conditions: male, human, plasma, po, 360 mg, BI 187004 plasma concentrations, gMean, 360 mg single oral, planned time 5 h
measured.parameter: concentration at 5 h (µM)
Numbers only, in µM.

Q: Recorded concentration at 5 h of N#Cc1ccc2c(c1)[C@H]1CCCN(C(=O)c3ccc4[nH]cnc4c3)[C@H]1C2 , please.
A: 7.36
